- Test system: MDA-MB-231 cells
- Test description: Cell viability study
- Type: cell-based, human
- Measurement conditions: read-out: IC50 (72 h), cell viability; MDA-MB-231, 72 h treatment
Value kind: pIC50
In plain terms, pIC50 is the concentration in mol/L turned into minus its base-10 logarithm.

Request the reported pIC50 associated with N.N.[Cl][Pt][Cl] [Cisplatin]
4.19

* * *

- System: MDA-MB-231 cells
- Test description: Cell viability study
- Type: cell-based, human
- Measurement conditions: read-out: IC50 (48 h), cell viability; MDA-MB-231, 48 h treatment
Value kind: IC50 (µM)
The answer is to be given in µM; state only the numeric part.

Request the reported IC50 associated with N.N.[Cl][Pt][Cl] [Cisplatin]
50
